- assayed system: recombinant rat MASP2 active protease (amino acids 296-685, C-terminal His Tag) (rat, UniProt Q9JJS8 296-685)
- Sequence (Q9JJS8 other isoform, or with tags, fused parts or gaps limits assumed): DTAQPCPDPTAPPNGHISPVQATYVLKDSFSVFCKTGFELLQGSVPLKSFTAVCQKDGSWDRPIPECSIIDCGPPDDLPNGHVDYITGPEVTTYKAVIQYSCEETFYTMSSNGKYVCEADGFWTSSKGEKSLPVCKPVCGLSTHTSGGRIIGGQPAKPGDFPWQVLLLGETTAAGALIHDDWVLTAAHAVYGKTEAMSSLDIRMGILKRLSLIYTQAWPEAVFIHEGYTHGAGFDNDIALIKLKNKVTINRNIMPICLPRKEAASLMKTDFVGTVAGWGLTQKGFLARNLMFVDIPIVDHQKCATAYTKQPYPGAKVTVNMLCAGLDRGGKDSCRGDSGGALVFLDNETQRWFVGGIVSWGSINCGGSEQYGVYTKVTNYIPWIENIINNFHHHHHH
- procedure text: cell-based or functional assay
Numbered stars: 1 amine (or outer) side, 2 acyl side, 3 side chain; on linkers, the order of the positions; unused ones are H or OH. Bridge positions count the residues as written; N and C are the ends. Square brackets hold non-standard residues; d marks the D form. Ends that are not written are not given here. βDap = *Dap: Dap linked through its additional amino group, O=C([C@H](CN[*:1])N[*:3])[*:2]; PEG9(31 atoms) = 1-amino-3,6,9,12,15,18,21,24,27-nonaoxatriacontan-30-oic acid; Oic = O=C(O)[C@@H]1C[C@@H]2CCCC[C@@H]2N1; PEG6 = NCCOCCOCCOCCOCCOCCOCCC(=O)O; tBuAla = CC(C)(C)C[C@H](N)C(=O)O; Pen = CC(C)(S)[C@H](N)C(=O)O; Sar = CNCC(=O)O
For each of the binders below, state its rat MASP2 IC50.
Numbers only, in nM.

Look over these answered cases.
# binder, rat MASP2 IC50 (nM)
measured = [
    ("[Sar]ICSRSLP[Oic]I[Pen]IPDD-OH (disulfide 3-11; N-terminus assumed; SMILES CC[C@H](C)[C@H](NC(=O)CNC)C(=O)N[C@H]1CSSC(C)(C)[C@@H](C(=O)N[C@H](C(=O)N2CCC[C@H]2C(=O)N[C@@H](CC(=O)O)C(=O)N[C@@H](CC(=O)O)C(=O)O)[C@@H](C)CC)NC(=O)[C@H]([C@@H](C)CC)NC(=O)[C@@H]2C[C@@H]3CCCC[C@@H]3N2C(=O)[C@@H]2CCCN2C(=O)[C@H](CC(C)C)NC(=O)[C@H](CO)NC(=O)[C@H](CCCNC(=N)N)NC(=O)[C@H](CO)NC1=O) [Example 466: ((N-Me)G)-IC+SRSLP-(Oic)-I-(Pen)+IPDD-OH]", 72),
    ("[Sar]ICSRSLP[Oic]I[Pen]IPD[PEG6]-NH2 (disulfide 3-11; N-terminus assumed; SMILES CC[C@H](C)[C@H](NC(=O)CNC)C(=O)N[C@H]1CSSC(C)(C)[C@@H](C(=O)N[C@H](C(=O)N2CCC[C@H]2C(=O)N[C@@H](CC(=O)O)C(=O)NCCOCCOCCOCCOCCOCCOCCC(N)=O)[C@@H](C)CC)NC(=O)[C@H]([C@@H](C)CC)NC(=O)[C@@H]2C[C@@H]3CCCC[C@@H]3N2C(=O)[C@@H]2CCCN2C(=O)[C@H](CC(C)C)NC(=O)[C@H](CO)NC(=O)[C@H](CCCNC(=N)N)NC(=O)[C@H](CO)NC1=O) [Example 146: ((N-Me)G)-IC+SRSLP-(Oic)-I-(Pen)+IPD-(PEG5(22 atoms))-NH2]", 68),
    ("[Sar]ICSRS[tBuAla]PPI[Pen]IP[PEG9(31 atoms)]-NH2 (disulfide 3-11) [Example 44: ((N-Me)G)-IC+SRS-((tBu)A)-PPI-(Pen)+IP-(PEG9(31 atoms))-NH2]", 35),
    ("[dF]ICSRSLP[Oic]I[Pen]IP-NH2 (disulfide 3-11; N-terminus assumed; SMILES CC[C@H](C)[C@H](NC(=O)[C@H](N)Cc1ccccc1)C(=O)N[C@H]1CSSC(C)(C)[C@@H](C(=O)N[C@H](C(=O)N2CCC[C@H]2C(N)=O)[C@@H](C)CC)NC(=O)[C@H]([C@@H](C)CC)NC(=O)[C@@H]2C[C@@H]3CCCC[C@@H]3N2C(=O)[C@@H]2CCCN2C(=O)[C@H](CC(C)C)NC(=O)[C@H](CO)NC(=O)[C@H](CCCNC(=N)N)NC(=O)[C@H](CO)NC1=O) [Example 370: fIC+SRSLP-(Oic)-I-(Pen)+IP-NH2]", 170),
]

Moving on to the next binder.
Entry AICSRSLP[Oic]I[Pen]IP[βDap]-OH (disulfide 3-11; also: Dap at position 14 joined through its 3-amino group) [Example 458: AIC+SRSLP-(Oic)-I-(Pen)+IP-(*Dap)-OH] : reported rat MASP2 IC50 = ?
100
